Where these numbers come from: patent US5844000A

- procedure details: Human pharmacokinetics: plasma concentration of SR 46349 (HPLC-UV) after single oral dose of 14C-SR 46349B
- Format: in vivo
- stated conditions: human, single oral 30 mg, read-out: mean plasma AUC for SR 46349 (±SD), as restated in the discussion
endpoint: AUC
Give the value; after it, write the unit.

-- ask Fill in the blank: the reported AUC of "CN(C)CCON=C(/C=C/c1ccc(O)cc1)c1ccccc1F" is ____.
-- reply 1200 ng·h/mL

====

- procedure details: Human pharmacokinetics: plasma concentration of SR 46349 (HPLC-UV) after single oral dose of 14C-SR 46349B
- Format: in vivo
- stated conditions: human, single oral 30 mg 14C-SR 46349B, healthy male volunteers, capsule, fasted, read-out: Cmax of SR 46349 in plasma, mean (±SD)
endpoint: Cmax

-- ask Fill in the blank: the reported Cmax of "CN(C)CCON=C(/C=C/c1ccc(O)cc1)c1ccccc1F" is ____.
-- reply 50 ng/mL
